# testSystem: 72 kDa type IV collagenase (Homo sapiens, UniProt P08253)
# Sequence (P08253 whole entry): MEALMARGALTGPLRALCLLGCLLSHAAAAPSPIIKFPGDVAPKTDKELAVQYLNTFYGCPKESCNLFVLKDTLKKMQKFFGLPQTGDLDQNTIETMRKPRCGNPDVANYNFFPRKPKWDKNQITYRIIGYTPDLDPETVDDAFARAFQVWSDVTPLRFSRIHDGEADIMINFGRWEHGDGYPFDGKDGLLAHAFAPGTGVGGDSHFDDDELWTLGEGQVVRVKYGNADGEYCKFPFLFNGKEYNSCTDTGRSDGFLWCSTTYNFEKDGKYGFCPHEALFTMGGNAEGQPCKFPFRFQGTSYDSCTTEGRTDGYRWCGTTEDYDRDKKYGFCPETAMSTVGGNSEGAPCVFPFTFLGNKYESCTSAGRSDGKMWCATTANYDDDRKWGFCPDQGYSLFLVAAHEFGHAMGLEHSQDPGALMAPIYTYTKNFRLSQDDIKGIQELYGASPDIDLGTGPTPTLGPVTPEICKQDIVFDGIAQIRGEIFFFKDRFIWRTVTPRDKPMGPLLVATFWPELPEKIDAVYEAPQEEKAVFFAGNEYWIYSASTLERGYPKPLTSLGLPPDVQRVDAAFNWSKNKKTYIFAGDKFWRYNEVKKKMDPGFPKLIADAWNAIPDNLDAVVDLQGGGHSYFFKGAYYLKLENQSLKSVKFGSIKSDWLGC
Kindly apply the following: t if IC50 is less than 20 µM, f in every other case.

Take a look at these entries with their results.
>  <structure>
Cc1ccc(S(=O)(=O)NC(P(=O)(O)O)P(=O)(O)O)cc1

>  <cat>
t

$$$$
>  <structure>
O=P(O)(O)C(NS(=O)(=O)c1ccccc1)P(=O)(O)O

>  <cat>
t

$$$$
>  <structure>
O=[N+]([O-])c1ccc(-c2ccc(S(=O)(=O)NC(P(=O)(O)O)P(=O)(O)O)cc2)cc1

>  <cat>
t

$$$$

Request: Does the reported IC50 of the following compound sit strictly below 20 µM? "O=P(O)(O)C(NS(=O)(=O)c1ccc(-c2ccc(Cl)cc2)cc1)P(=O)(O)O"
Response: t

Request: Determine whether this compound shows IC50 lower than 20 µM (ties excluded): "O=P(O)(O)C(P(=O)(O)O)S(=O)(=O)c1ccc(Br)cc1"
Response: f

Request: Dear reviewer, please state whether "O=C(NC(P(=O)(O)O)P(=O)(O)O)c1ccc(Br)cc1" has IC50 strictly beneath 20 µM.
Response: f

Request: Could you please tell me whether IC50 recorded for "O=P(O)(O)C(NS(=O)(=O)c1ccc(Cl)cc1)P(=O)(O)O" is less than 20 µM?
Response: t

Request: Consider "O=P(O)(O)C(NS(=O)(=O)c1ccc(Br)cc1)P(=O)(O)O" . Does its IC50 lie strictly below 20 µM?
Response: t

* * *

Listed here: items and their measured log10(IC50).
# testSystem: Carbonic anhydrase 14 (Homo sapiens)
# Sequence (Q9ULX7 whole entry): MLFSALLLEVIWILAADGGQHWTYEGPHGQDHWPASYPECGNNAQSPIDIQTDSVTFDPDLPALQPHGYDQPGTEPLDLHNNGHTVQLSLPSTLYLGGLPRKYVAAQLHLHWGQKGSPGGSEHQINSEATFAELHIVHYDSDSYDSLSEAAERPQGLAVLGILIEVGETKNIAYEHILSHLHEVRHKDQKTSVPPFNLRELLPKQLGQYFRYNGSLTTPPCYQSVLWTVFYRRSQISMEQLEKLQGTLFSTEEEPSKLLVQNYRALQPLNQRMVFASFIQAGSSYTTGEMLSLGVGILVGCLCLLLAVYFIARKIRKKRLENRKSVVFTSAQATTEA
Heads up, the numbers here are log10 of IC50 in nM units.

Check out these entries, answers already filled in.
>  <structure>
COc1ccc(-c2ccc(S(=O)(=O)NC(P(=O)(O)O)P(=O)(O)O)cc2)cc1

>  <testSystem>
Carbonic anhydrase 14 (Homo sapiens)

>  <log10(IC50)>
1.85

$$$$
>  <structure>
O=P(O)(O)C(NS(=O)(=O)c1ccc(-c2ccccc2)cc1)P(=O)(O)O

>  <testSystem>
Carbonic anhydrase 14 (Homo sapiens)

>  <log10(IC50)>
2.86

$$$$

Request: I have this molecule here, "Cc1ccc(S(=O)(=O)NC(P(=O)(O)O)P(=O)(O)O)cc1" , and I need its recorded log10(IC50).
Response: 2.73

Request: Need log10(IC50), item "COc1ccc(S(=O)(=O)NC(P(=O)(O)O)P(=O)(O)O)cc1"
Response: 2.71

Request: Field request: log10(IC50) | item: "O=P(O)(O)C(NS(=O)(=O)c1ccc(Br)cc1)P(=O)(O)O"
Response: 2.95

* * *

Carbonic anhydrase 2 (Homo sapiens) measurements of IC50, listed per entry.

>  <structure>
COc1ccc(S(=O)(=O)NC(P(=O)(O)O)P(=O)(O)O)cc1

>  <IC50>
> 10 µM

$$$$
>  <structure>
Cc1ccc(S(=O)(=O)NC(P(=O)(O)O)P(=O)(O)O)cc1

>  <IC50>
> 100 µM

$$$$
>  <structure>
O=P(O)(O)C(P(=O)(O)O)S(=O)(=O)c1ccc(Br)cc1

>  <IC50>
> 10 µM

$$$$

Request: Please provide the recorded IC50 for "O=C(NC(P(=O)(O)O)P(=O)(O)O)c1ccc(Br)cc1" , tested on Carbonic anhydrase 2 (Homo sapiens).
Response: > 10 µM

Request: IC50, test system Carbonic anhydrase 2 (Homo sapiens), entry "O=P(O)(O)C(NS(=O)(=O)c1ccc(Br)cc1)P(=O)(O)O"
Response: > 10 µM

Request: Form field - read-out: IC50; system: Carbonic anhydrase 2 (Homo sapiens); submitted item: "O=P(O)(O)C(NS(=O)(=O)c1ccc(Cl)cc1)P(=O)(O)O"
Response: 6.16 µM

Request: Find IC50 (Carbonic anhydrase 2 (Homo sapiens)) for the entry "O=P(O)(O)C(NS(=O)(=O)c1ccc(-c2ccc(Cl)cc2)cc1)P(=O)(O)O"
Response: 2.66 µM
